Task for the reader: assign each of the following compounds its reported pIC50.
measured.on: UniProt:P0DTD1
test.protocol: NSP14 MTase inhibition assay at 37° C. (MTase-Glo SAH detection)
Assay type: biochemical, SARS-CoV-2
assay.setup: 0.3 nM NSP14, 2.5 μM SAM, 2.5 μM GpppA RNA, 45 min at 37° C.; read-out: Nsp14 Mtase Inh. IC50
One number for each entry, as −log10 of the molar value.

Cc1c(S(=O)(=O)c2ccc3[nH]ncc3c2)cc(C(=O)N[C@@H]2CCN(c3ccccc3C#N)C2)n1C    9.08

We now examine a further compound.
Fill in: pIC50 of "Cc1c(S(=O)(=O)c2ccc3c(cnn3C)c2)cc(C(=O)NCc2c(F)ccc3ncn(C4CC4)c23)n1C" is ___
9.30

###

measured.on: NSP14 (Severe acute respiratory syndrome coronavirus 2)
test.protocol: NSP14 MTase inhibition assay at 37° C. (MTase-Glo SAH detection)
Format: biochemical, SARS-CoV-2
assay.setup: 0.3 nM NSP14, 2.5 μM SAM, 2.5 μM GpppA RNA, 45 min at 37° C.; read-out: Nsp14 Mtase Inh. IC50
Task for the reader: assign each of the following molecules its reported log10 of IC50.
Hello, just confirming the data are log10 of IC50 with units of nM.

Cc1c(S(=O)(=O)c2ccc3[nH]ncc3c2)cc(C(=O)N[C@@H]2CCN(c3cccc4c3cnn4C)C2)n1C [A.61]    -0.41
Cc1c(S(=O)(=O)c2ccc3[nH]ncc3c2)cc(C(=O)NC2(CO)CCN(c3ncc(F)cn3)C2)n1C (single isomer, unassigned) [A.117]    0.45

// each molecule listed below needs its log10 of IC50
1. COCCn1c(C(=O)N[C@@H]2CCN(c3ncc(F)cn3)C2)cc(S(=O)(=O)c2ccc3[nH]ncc3c2)c1C [A.91]
2. Cc1c(S(=O)(=O)c2ccc3[nH]ncc3c2)cc(C(=O)N[C@@H]2CCN(c3ccc(C(F)(F)F)cc3)C2)n1C [A.123]
3. Cc1c(S(=O)(=O)c2ccc3[nH]ncc3c2)cc(C(=O)N[C@@H]2CCN(c3cncnc3)C2)n1C [A.73]
4. Cc1c(S(=O)(=O)c2ccc3[nH]ncc3c2)cc(C(=O)N[C@@H]2CCN(c3ccc(F)nc3)C2)n1C [A.56]

[-0.77, 0.93, -0.39, -0.70]

###

measured.on: NSP14 (Severe acute respiratory syndrome coronavirus 2, UniProt P0DTD1)
test.protocol: NSP14 MTase inhibition assay at 37° C. (MTase-Glo SAH detection)
Type: biochemical, SARS-CoV-2
assay.setup: 37° C., 0.3 nM NSP14, 2.5 μM SAM, 2.5 μM GpppA RNA; read-out: Nsp14 Mtase Inh. IC50
Task for the reader: assign each of the following molecules its reported pIC50.
Give bare numbers, as −log10 of the molar value.

Cc1c(S(=O)(=O)c2cccc(C#N)c2)cc(C(=O)NCc2cccc3cnn(C4CC4)c23)n1C    7.64
Cc1c(S(=O)(=O)c2cc(F)c3[nH]ncc3c2)cc(C(=O)NCc2c[nH]c(=O)c3ccccc23)n1C    9.62
Cc1c(S(=O)(=O)c2ccc3[nH]ncc3c2)cc(C(=O)NCc2cncc3cnn(C)c23)n1C    9.31
Cc1c(S(=O)(=O)c2ccc3[nH]nc(F)c3c2)cc(C(=O)NC(c2ccccc2)C(F)(F)F)n1C (stereo not shown)    7.15
Cc1c(S(=O)(=O)c2ccc3[nH]ncc3c2)cc(C(=O)NCc2c(F)ccc3c2N(C)C(=O)C3)n1C    9.82

// each molecule listed below needs its pIC50
1. Cc1cc(C)n(C)c(=O)c1CNC(=O)c1cc(S(=O)(=O)c2ccc3[nH]ncc3c2)c(C)n1C
2. Cc1c(S(=O)(=O)c2ccc3[nH]ncc3c2)cc(C(=O)NCc2ccccc2)n1C
3. Cc1c(S(=O)(=O)c2cc(C3CC3)c3[nH]ncc3c2)cc(C(=O)NCc2cccc3cnn(C4CC4)c23)n1C
4. Cc1c(S(=O)(=O)c2cc(F)c3[nH]ncc3c2)cc(C(=O)NCc2ccnn2C)n1C
5. COc1ccc(CNC(=O)c2cc(S(=O)(=O)c3ccc4[nH]nc(F)c4c3)c(C)n2C)c(C(F)(F)F)n1

9.07
8.59
7.30
8.00
8.15
